Hello, the source for this data is patent US20220010021A1, in case you need it.

- assayed system: human FGFR1c + KLB receptor complex on HEK293 iLite FGF21 reporter cells (human, UniProt P11362 22-822; Q86Z14 1-1044)
- Sequence (P11362 22-822, chain 1 of 2): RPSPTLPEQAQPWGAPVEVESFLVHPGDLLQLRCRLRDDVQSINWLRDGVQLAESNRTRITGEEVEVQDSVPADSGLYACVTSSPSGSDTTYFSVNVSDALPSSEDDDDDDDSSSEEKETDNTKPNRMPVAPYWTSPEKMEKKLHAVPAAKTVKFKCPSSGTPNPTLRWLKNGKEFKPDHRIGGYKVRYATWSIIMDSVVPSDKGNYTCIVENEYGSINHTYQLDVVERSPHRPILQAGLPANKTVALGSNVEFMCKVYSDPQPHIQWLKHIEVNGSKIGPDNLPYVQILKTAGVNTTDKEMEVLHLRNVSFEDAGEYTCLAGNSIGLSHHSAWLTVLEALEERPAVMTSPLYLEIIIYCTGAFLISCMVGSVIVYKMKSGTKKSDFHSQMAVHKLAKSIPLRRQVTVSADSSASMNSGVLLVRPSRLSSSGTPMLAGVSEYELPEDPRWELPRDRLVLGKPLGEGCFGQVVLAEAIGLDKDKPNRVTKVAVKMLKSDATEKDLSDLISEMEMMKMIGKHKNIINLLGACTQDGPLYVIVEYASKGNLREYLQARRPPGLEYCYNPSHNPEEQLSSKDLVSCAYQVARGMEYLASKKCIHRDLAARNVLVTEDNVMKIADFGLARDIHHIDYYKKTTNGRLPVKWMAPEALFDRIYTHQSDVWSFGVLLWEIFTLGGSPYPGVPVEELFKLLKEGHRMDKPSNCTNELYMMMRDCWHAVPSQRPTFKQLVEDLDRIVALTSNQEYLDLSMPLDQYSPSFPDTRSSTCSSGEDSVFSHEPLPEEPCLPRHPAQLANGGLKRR
- Sequence (Q86Z14 whole entry, chain 2 of 2): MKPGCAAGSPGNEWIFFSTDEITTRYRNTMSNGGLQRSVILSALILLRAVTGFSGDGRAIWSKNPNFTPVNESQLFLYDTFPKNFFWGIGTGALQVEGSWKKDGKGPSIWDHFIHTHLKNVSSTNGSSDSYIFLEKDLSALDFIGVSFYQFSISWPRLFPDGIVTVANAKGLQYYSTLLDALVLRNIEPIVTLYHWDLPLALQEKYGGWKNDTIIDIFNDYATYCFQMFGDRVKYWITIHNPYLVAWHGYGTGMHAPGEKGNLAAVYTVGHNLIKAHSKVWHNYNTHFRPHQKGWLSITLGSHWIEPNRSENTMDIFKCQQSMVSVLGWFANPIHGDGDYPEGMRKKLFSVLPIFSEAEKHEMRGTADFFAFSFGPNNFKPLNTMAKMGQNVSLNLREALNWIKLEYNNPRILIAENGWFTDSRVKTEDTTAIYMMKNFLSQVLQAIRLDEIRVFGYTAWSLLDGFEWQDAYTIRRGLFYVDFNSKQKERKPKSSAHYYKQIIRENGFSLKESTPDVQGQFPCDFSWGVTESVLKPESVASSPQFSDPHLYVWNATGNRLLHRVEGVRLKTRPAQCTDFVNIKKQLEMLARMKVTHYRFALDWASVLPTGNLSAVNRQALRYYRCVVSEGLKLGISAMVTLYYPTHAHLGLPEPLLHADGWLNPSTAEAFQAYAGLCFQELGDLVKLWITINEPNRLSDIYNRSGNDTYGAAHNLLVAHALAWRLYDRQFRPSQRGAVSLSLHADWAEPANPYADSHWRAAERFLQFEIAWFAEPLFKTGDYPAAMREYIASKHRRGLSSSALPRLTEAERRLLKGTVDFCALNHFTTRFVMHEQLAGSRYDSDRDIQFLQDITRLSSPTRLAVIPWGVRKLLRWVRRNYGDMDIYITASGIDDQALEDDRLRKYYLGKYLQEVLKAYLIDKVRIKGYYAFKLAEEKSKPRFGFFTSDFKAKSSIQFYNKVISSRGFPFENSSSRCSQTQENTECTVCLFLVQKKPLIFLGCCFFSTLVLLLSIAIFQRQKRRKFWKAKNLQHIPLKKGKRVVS
- experiment: cell-based or functional assay
property: Emax
Kindly format the answer as number then unit.

Field: example entries. Status: answers known.
{"binder": "Ab0349 (antibody, IgG4, V domains shown) VH: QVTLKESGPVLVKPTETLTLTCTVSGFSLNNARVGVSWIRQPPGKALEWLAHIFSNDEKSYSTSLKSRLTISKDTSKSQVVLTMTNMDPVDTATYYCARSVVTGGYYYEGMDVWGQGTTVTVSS VL: SYVLTQPPSVSVAPGQTARITCGGSNIGSESVHWYQQKPGQAPVLVVYEESDRPSGIPERFSGSNSGNTATLTISRVEAGDEADYYCQVWTGSSDHVVFGGGTKLTVLG", "value reported": "511%"}
{"binder": "Ab0204 (antibody, IgG4, V domains shown, IgG4 PE) VH: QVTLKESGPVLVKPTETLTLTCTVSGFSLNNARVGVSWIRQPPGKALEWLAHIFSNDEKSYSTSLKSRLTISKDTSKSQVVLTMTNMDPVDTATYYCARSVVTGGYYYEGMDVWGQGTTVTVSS VL: SYVLTQPPSVSVAPGQTARITCGGNNIGSESVHWYQQKPGQAPVLVVYDDSDRPSGIPERFSGSNSGNTATLTISRVEAGDEADYYCQVWTGNSDHVVFGGGTKLTVLG", "value reported": "1420%"}
{"binder": "Ab0338 (antibody, IgG4, V domains shown, IgG4 PE) VH: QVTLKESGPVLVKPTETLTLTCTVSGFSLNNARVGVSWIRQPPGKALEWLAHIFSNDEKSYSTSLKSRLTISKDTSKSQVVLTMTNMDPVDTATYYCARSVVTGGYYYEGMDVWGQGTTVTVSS VL: SYVLTQPPSVSVAPGQTARITCGGSNIGSESVHWYQQKPGQAPVLVVYSSSDRPSGIPERFSGSNSGNTATLTISRVEAGDEADYYCQVWAGSSDHVVFGGGTKLTVLG", "value reported": "971%"}

Which Emax is listed for Ab0315 (antibody, IgG4, V domains shown) VH: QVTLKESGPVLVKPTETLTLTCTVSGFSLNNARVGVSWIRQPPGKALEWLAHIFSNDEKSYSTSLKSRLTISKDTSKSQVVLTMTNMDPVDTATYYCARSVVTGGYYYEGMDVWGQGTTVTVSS VL: SYVLTQPPSVSVAPGQTARITCGGNNIGSESVHWYQQKPGQAPVLVVYYDSDRPSGIPERFSGSNSGNTATLTISRVEAGDEADYYCQVWTGESDHVVFGGGTKLTVLG ?
806%

Also Ab0415 (antibody, IgG4, V domains shown) VH: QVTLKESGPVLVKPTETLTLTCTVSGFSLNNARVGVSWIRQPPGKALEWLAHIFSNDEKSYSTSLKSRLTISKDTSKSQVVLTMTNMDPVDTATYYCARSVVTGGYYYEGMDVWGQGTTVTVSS VL: SYVLTQPPSVSVAPGQTARITCGGSNIGSESVHWYQQKPGQAPVLVVYYESDRPSGIPERFSGSNSGNTATLTISRVEAGDEADYYCQVWAGESDHVVFGGGTKLTVLG ?
674%

Also Ab0201 (antibody, IgG4, V domains shown, IgG4 PE) VH: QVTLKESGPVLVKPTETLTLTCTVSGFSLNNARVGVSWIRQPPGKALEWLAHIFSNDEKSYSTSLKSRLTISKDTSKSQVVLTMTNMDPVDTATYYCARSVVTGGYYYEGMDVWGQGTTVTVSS VL: SYVLTQPPSVSVAPGQTARITCGGSNIGSESVHWYQQKPGQAPVLVVYDDSDRPSGIPERFSGSNSGNTATLTISRVEAGDEADYYCQVWDGNSDHVVFGGGTKLTVLG ?
2490%

Also Ab0319 (antibody, IgG4, V domains shown) VH: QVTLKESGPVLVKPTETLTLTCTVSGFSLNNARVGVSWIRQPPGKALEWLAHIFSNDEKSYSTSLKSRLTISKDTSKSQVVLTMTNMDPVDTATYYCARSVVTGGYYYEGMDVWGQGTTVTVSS VL: SYVLTQPPSVSVAPGQTARITCGGNNIGSESVHWYQQKPGQAPVLVVYYESDRPSGIPERFSGSNSGNTATLTISRVEAGDEADYYCQVWTGESDHVVFGGGTKLTVLG ?
698%

Also Ab0463 (antibody, IgG4, V domains shown) VH: QVTLKESGPVLVKPTETLTLTCTVSGFSLSYARVGVSWIRQPPGKALEWLAHIFSNDEKSYSTSLKSRLTISKDTSKSQVVLTMTNMDPVDTATYYCARSVVTGGYYYEGMDVWGQGTTVTVSS VL: SYVLTQPPSVSVAPGQTARITCGGSNIGSESVHWYQQKPGQAPVLVVYEESDRPSGIPERFSGSNSGNTATLTISRVEAGDEADYYCQVWEGESDHVVFGGGTKLTVLG ?
951%

Also Ab0317 (antibody, IgG4, V domains shown) VH: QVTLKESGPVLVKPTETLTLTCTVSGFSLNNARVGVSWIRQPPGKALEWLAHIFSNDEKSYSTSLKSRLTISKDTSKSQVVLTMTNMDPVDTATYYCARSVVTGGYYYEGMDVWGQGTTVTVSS VL: SYVLTQPPSVSVAPGQTARITCGGNNIGSESVHWYQQKPGQAPVLVVYDESDRPSGIPERFSGSNSGNTATLTISRVEAGDEADYYCQVWTGESDHVVFGGGTKLTVLG ?
968%

Also Ab0416 (antibody, IgG4, V domains shown, IgG4 PE) VH: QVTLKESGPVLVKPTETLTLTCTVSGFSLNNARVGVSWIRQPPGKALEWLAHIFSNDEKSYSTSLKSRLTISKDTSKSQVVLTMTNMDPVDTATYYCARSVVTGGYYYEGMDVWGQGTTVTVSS VL: SYVLTQPPSVSVAPGQTARITCGGSNIGSESVHWYQQKPGQAPVLVVYYESDRPSGIPERFSGSNSGNTATLTISRVEAGDEADYYCQVWEGESDHVVFGGGTKLTVLG ?
863%
